# measurement-target: iNOS (Homo sapiens)
# assay-summary: NOS activity assay, iNOS (L-[3H]citrulline formation)
# Format: biochemical
# condition-details: Table 4; read-out: IC50 iNOS
Where a name gives a salt, the structure may show the parent alone.
quantity: IC50

molecule | assay-result
CCC1CCC(=N)N1 (stereo not drawn) | ≤ 50 µM
CC1CC(N)=NC1C (stereo not drawn) [Table 4: H, CH3, CH3, H, H, hydrochloride] | ≤ 1 µM
CC(=O)OC[C@H]1CCC(=N)N1 [Table 4: H, H, (R)-CH2OAc, H, H, hydrochloride] | > 50 µM
CC1(C)CCC(=N)N1 [Table 4: H, H, (CH3)2, H, H, hydrochloride] | ≤ 10 µM
CC1CN=C(N)C1C (stereo not drawn) [Table 4: CH3, CH3, H, H, H, hydrochloride] | ≤ 10 µM
Oc1ccc(CCNC2=NCCC2)cc1O [Table 4: H, H, H, H, C2 H4 Ph-3,4-(OH)2, hydrochloride] | > 50 µM
CCCC1N=C(N)CC1C (stereo not drawn) [Table 4: H, CH3, n-C3H7, H, H, hydrochloride] | ≤ 10 µM
CC(=O)OC[C@@H]1CCC(=N)N1 [Table 4: H, H, (S)-CH2OAc, H, H, hydrochloride] | ≤ 50 µM

Prompt line: Give the measured IC50 of N=C1NCCC1S (stereo not drawn) .
Response line: ≤ 50 µM

Numbers sourced from patent US5629322A.
